molecular target: Inhibitor of nuclear factor kappa-B kinase subunit epsilon (Homo sapiens, UniProt Q14164); assay: Inhibition of human IKKepsilon using ERLLDDRHDSGLDSMKDEE as substrate after 60 mins in presence of ATP by ADP-Glo kinase assay
Sequence (Q14164 whole entry): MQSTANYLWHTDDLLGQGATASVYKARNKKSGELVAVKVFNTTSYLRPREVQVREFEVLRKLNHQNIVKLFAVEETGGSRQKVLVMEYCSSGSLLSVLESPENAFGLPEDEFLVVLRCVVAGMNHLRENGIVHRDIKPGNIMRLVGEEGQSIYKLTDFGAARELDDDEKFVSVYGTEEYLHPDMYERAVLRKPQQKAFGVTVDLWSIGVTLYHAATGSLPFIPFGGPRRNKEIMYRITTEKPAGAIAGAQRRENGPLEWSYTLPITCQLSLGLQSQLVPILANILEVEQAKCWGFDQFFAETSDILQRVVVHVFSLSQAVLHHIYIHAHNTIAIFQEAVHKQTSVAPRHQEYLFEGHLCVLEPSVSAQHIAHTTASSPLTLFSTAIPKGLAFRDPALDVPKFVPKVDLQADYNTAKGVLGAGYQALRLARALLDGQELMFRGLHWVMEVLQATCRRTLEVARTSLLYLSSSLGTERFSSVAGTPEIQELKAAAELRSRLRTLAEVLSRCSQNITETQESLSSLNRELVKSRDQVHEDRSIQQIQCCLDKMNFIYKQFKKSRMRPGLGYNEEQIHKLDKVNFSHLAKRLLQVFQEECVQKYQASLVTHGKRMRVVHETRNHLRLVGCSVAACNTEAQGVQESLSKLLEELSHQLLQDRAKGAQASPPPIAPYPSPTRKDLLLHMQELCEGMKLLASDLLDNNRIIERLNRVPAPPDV
IC50 values by entry
Provide only the numeric value, understood in µM.

Solved cases (2 shown):
Nc1nonc1C(=O)Nc1cc(C(F)(F)F)cc(C(F)(F)F)c1 = 44.8
Cn1nnc(O)c1C(=O)Nc1cc(C(F)(F)F)cc(C(F)(F)F)c1 = 58.5

Then this compound:
Per the record, `O=C(Nc1cc(C(F)(F)F)cc(C(F)(F)F)c1)c1nonc1O` has IC50 of 58.5

###

molecular target: Mitogen-activated protein kinase kinase kinase 14 (Homo sapiens, UniProt Q99558); assay: Inhibition of human NIK at 100 uM using AKDVDQGSLCTSFVGTLQY as substrate after 60 mins in presence of ATP by ADP-Glo kinase assay relative to control
Sequence (Q99558 whole entry, looked up): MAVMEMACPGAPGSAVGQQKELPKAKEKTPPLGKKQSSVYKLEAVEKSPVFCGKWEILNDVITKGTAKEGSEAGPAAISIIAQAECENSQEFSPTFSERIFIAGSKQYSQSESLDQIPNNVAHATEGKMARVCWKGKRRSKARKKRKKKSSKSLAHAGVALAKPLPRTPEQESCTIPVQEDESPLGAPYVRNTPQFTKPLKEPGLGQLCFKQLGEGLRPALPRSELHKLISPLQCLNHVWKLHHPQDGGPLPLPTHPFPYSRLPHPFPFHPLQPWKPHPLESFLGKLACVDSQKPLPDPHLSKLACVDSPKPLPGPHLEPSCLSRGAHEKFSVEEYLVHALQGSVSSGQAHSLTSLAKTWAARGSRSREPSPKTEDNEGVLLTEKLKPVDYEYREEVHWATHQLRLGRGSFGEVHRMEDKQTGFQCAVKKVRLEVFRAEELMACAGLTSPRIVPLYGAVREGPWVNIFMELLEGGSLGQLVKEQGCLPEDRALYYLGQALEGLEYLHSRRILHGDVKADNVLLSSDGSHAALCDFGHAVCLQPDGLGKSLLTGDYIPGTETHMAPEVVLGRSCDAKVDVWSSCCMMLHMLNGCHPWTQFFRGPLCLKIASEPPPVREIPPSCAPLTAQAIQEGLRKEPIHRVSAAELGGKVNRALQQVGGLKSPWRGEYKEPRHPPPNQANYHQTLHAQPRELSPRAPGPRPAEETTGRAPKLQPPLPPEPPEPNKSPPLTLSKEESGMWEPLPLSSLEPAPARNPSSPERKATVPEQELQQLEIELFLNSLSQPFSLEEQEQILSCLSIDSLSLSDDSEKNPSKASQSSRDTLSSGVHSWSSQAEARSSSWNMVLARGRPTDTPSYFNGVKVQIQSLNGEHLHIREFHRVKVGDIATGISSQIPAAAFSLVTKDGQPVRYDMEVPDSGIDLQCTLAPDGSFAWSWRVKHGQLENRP
Each record here notes measured inhibition.
Give the value, in units of %, as a plain number.

The cases that follow already have their inhibition on record.
Cn1nc(O)c(C(=O)Nc2cc(C(F)(F)F)cc(C(F)(F)F)c2)n1 = 9.1
Cn1cc(C(=O)Nc2cc(C(F)(F)F)cc(C(F)(F)F)c2)c(O)n1 = 7.23
Cc1c(C(=O)Nc2cc(C(F)(F)F)cc(C(F)(F)F)c2)c(O)nn1C = 24.1
O=C(Nc1cccc(C(F)(F)F)c1)c1nsnc1O = -1.1
O=C(Nc1cccc(C(F)(F)F)c1)c1nonc1O = 11.8

Documented inhibition of `Cn1nnc(O)c1C(=O)Nc1cc(C(F)(F)F)cc(C(F)(F)F)c1` : 12.1

For record `O=C(Nc1cc(C(F)(F)F)cc(C(F)(F)F)c1)c1nonc1O` the listed inhibition is 19.3

Recorded inhibition (compound O=C(Nc1cc(C(F)(F)F)cc(C(F)(F)F)c1)c1cc(Cl)ccc1O [IMD-0354] ): 13.8

GET /value?item= `O=C(Nc1cc(C(F)(F)F)cc(C(F)(F)F)c1)c1nsnc1O` &field=inhibition returns 4.34

Given item `Nc1nonc1C(=O)Nc1cc(C(F)(F)F)cc(C(F)(F)F)c1` , the value recorded as its inhibition is -9.2

Form: compound = `COc1nsnc1C(=O)Nc1cc(C(F)(F)F)cc(C(F)(F)F)c1` ; inhibition = -1.9

For reference, reported inhibition for `O=C(Nc1cc(C(F)(F)F)cc(C(F)(F)F)c1)c1n[nH]nc1O` stands at -9.5

###

Target: Inhibitor of nuclear factor kappa-B kinase subunit alpha (Homo sapiens, UniProt O15111)
Sequence (O15111 whole entry): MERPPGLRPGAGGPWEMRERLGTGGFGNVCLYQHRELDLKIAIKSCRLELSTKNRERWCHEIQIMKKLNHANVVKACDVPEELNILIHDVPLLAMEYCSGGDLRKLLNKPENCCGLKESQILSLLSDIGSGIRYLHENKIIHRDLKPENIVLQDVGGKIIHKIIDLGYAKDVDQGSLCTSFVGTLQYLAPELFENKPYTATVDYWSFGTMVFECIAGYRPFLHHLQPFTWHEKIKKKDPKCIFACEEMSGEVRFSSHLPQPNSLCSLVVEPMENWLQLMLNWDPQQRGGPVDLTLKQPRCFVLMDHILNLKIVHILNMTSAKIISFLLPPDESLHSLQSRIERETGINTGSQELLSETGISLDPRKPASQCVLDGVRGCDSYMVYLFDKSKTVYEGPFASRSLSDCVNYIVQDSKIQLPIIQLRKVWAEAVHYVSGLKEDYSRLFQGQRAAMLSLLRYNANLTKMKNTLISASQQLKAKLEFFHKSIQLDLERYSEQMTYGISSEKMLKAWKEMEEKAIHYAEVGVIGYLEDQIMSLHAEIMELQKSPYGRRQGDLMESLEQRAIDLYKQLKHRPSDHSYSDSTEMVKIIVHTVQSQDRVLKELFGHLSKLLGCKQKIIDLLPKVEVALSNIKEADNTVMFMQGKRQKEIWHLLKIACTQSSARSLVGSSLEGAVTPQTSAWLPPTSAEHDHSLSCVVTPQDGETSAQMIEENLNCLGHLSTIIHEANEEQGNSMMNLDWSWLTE
Experiment: Inhibition of human IKKalpha using ERLLDDRHDSGLDSMKDEE as substrate after 60 mins in presence of ATP by ADP-Glo kinase assay
// IC50 lookup, one value per entry

O=C(Nc1cc(Cl)cc2c1[nH]c1cnccc12)c1cccnc1 = > 100 µM

The recorded IC50 for `Cc1c(C(=O)Nc2cc(C(F)(F)F)cc(C(F)(F)F)c2)c(O)nn1C` is > 100 µM

Quick note, IC50 for `O=C(Nc1cc(C(F)(F)F)cc(C(F)(F)F)c1)c1nonc1O` landed at > 100 µM

Form: molecule = `Cn1nnc(O)c1C(=O)Nc1cc(C(F)(F)F)cc(C(F)(F)F)c1` ; IC50 = > 100 µM

# IC50 of `Cn1nc(O)c(C(=O)Nc2cc(C(F)(F)F)cc(C(F)(F)F)c2)n1` = > 100 µM

So, O=C(Nc1cc(C(F)(F)F)cc(C(F)(F)F)c1)c1cc(Cl)ccc1O [IMD-0354] ? Its IC50 was > 100 µM

// IC50 value for `O=C(Nc1cc(C(F)(F)F)cc(C(F)(F)F)c1)c1nsnc1O` : > 100 µM

###

biological target: Inhibitor of nuclear factor kappa-B kinase subunit alpha (Homo sapiens); assay: Inhibition of human IKKalpha using ERLLDDRHDSGLDSMKDEE as substrate after 60 mins in presence of ATP by ADP-Glo kinase assay
pIC50: −log10 of the molar value.
Each entry below carries its recorded pIC50.

Before answering, review these 5 worked examples.
Nc1nonc1C(=O)Nc1cc(C(F)(F)F)cc(C(F)(F)F)c1 = < 4.00
O=C(Nc1cccc(C(F)(F)F)c1)c1nsnc1O = 4.45
O=C(Nc1cc(C(F)(F)F)cc(C(F)(F)F)c1)c1n[nH]nc1O = < 4.00
O=C(Nc1cccc(C(F)(F)F)c1)c1nonc1O = < 4.00
Cn1cc(C(=O)Nc2cc(C(F)(F)F)cc(C(F)(F)F)c2)c(O)n1 = < 4.00

// next item, pIC50 requested
The value of pIC50 measured for the molecule `COc1nsnc1C(=O)Nc1cc(C(F)(F)F)cc(C(F)(F)F)c1` turned out to be < 4.00

###

target: Inhibitor of nuclear factor kappa-B kinase subunit beta (Homo sapiens, UniProt O14920); assay: Inhibition of IKK-beta in human Jurkat cells assessed as reduction in TNFalpha-stimulated IkBalpha degradation preincubated for 60 mins followed by TNFalpha stimulation for 20 mins by immunoblot analysis; assay type: cell-based
Sequence (O14920 whole entry): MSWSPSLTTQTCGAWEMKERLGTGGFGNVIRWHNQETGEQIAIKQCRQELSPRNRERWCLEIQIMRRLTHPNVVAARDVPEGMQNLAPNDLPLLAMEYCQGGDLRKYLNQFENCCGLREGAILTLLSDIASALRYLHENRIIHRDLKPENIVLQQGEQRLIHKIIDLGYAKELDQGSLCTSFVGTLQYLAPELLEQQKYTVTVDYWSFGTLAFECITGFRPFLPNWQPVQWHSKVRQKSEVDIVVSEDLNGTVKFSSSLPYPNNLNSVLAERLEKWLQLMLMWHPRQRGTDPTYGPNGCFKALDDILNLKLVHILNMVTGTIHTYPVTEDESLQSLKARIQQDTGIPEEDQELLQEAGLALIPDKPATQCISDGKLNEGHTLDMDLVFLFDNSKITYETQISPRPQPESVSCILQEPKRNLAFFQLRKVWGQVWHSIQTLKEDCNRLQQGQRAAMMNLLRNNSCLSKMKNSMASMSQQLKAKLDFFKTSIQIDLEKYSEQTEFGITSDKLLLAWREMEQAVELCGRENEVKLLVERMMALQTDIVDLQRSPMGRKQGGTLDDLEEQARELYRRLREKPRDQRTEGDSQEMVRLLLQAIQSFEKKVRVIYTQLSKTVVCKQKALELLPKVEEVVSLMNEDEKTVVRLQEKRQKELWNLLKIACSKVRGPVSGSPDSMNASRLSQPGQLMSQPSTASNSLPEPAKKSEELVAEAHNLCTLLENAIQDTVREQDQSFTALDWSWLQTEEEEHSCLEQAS
measuredProperty: pIC50
pIC50 field: float, defined as -log10 of concentration (mol/L).

Examples with answers:
Cc1c(C(=O)Nc2cc(C(F)(F)F)cc(C(F)(F)F)c2)c(O)nn1C = 5.88
Cn1cc(C(=O)Nc2cc(C(F)(F)F)cc(C(F)(F)F)c2)c(O)n1 = 4.59
O=C(Nc1cc(C(F)(F)F)cc(C(F)(F)F)c1)c1nonc1O = 5.16
O=C(Nc1cc(Cl)cc2c1[nH]c1cnccc12)c1cccnc1 = 6.73
O=C(Nc1cc(C(F)(F)F)cc(C(F)(F)F)c1)c1cc(Cl)ccc1O [IMD-0354] = 6.66

Entry `O=C(Nc1cccc(C(F)(F)F)c1)c1nonc1O` , pIC50 reported as 5.76

pIC50 in this record for `O=C(Nc1cc(C(F)(F)F)cc(C(F)(F)F)c1)c1nsnc1O` : 6.84

###

target: Inhibitor of nuclear factor kappa-B kinase subunit beta (Homo sapiens) (UniProt O14920); test: Inhibition of human IKKbeta at 100 uM using ERLLDDRHDSGLDSMKDEE as substrate after 60 mins in presence of ATP by ADP-Glo kinase assay relative to control
Sequence (O14920 whole entry): as the sequence (O14920 whole entry) above
Listed here are molecules together with their documented inhibition.
Note: a bare number is incomplete; add the unit.

Cn1nnc(O)c1C(=O)Nc1cc(C(F)(F)F)cc(C(F)(F)F)c1 = 11.2%
O=C(Nc1cc(C(F)(F)F)cc(C(F)(F)F)c1)c1cc(Cl)ccc1O = 5.43%
Cn1cc(C(=O)Nc2cc(C(F)(F)F)cc(C(F)(F)F)c2)c(O)n1 = 12.7%

According to the records, this molecule `O=C(Nc1cccc(C(F)(F)F)c1)c1nonc1O` displays inhibition of 2.06%

get_value(item= `O=C(Nc1cc(C(F)(F)F)cc(C(F)(F)F)c1)c1nonc1O` , readout=inhibition) returns 12.2%

###

Biological target: Inhibitor of nuclear factor kappa-B kinase subunit alpha (Homo sapiens)
Sequence (whole entry): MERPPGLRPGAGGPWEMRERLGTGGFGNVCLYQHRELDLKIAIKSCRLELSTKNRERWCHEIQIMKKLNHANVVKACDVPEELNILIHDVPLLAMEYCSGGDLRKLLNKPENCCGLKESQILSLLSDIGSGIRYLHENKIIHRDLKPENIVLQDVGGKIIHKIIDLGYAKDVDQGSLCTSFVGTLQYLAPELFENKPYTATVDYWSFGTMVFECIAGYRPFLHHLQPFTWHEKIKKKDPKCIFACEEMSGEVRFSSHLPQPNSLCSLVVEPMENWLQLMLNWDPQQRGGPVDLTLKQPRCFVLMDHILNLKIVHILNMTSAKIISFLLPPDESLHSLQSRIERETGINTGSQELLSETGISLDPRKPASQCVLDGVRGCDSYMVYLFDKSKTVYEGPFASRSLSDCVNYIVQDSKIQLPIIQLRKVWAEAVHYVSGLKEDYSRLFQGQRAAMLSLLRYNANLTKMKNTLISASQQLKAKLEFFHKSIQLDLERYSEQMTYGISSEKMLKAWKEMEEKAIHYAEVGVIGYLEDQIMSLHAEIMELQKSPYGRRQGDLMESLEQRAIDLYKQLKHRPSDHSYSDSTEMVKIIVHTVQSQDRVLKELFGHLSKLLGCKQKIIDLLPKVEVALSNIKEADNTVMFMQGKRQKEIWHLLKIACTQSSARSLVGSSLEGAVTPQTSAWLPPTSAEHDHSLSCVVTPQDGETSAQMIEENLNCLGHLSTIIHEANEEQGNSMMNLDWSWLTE
Experiment: Inhibition of human IKKalpha at 100 uM using ERLLDDRHDSGLDSMKDEE as substrate after 60 mins in presence of ATP by ADP-Glo kinase assay relative to control
Each entry below lists one item and its recorded inhibition value.
Give the value, in units of %, as a plain number.

O=C(Nc1cc(C(F)(F)F)cc(C(F)(F)F)c1)c1nonc1O = 18.6
O=C(Nc1cccc(C(F)(F)F)c1)c1nonc1O = -2.5

Measured inhibition for this entry `Cc1c(C(=O)Nc2cc(C(F)(F)F)cc(C(F)(F)F)c2)c(O)nn1C` on Inhibitor of nuclear factor kappa-B kinase subunit alpha (Homo sapiens): 13.2

Assay Inhibitor of nuclear factor kappa-B kinase subunit alpha (Homo sapiens), sample `O=C(Nc1cc(C(F)(F)F)cc(C(F)(F)F)c1)c1n[nH]nc1O` , inhibition read: 24.5

Test item `Cn1nc(O)c(C(=O)Nc2cc(C(F)(F)F)cc(C(F)(F)F)c2)n1` ; Inhibitor of nuclear factor kappa-B kinase subunit alpha (Homo sapiens); reported inhibition was 46.9

I looked up `Cn1nnc(O)c1C(=O)Nc1cc(C(F)(F)F)cc(C(F)(F)F)c1` and its inhibition for Inhibitor of nuclear factor kappa-B kinase subunit alpha (Homo sapiens) was 13.1

Considering `O=C(Nc1cc(C(F)(F)F)cc(C(F)(F)F)c1)c1nsnc1O` , its inhibition with Inhibitor of nuclear factor kappa-B kinase subunit alpha (Homo sapiens) was recorded as 25.2

The reported Inhibitor of nuclear factor kappa-B kinase subunit alpha (Homo sapiens) inhibition of `Nc1nonc1C(=O)Nc1cc(C(F)(F)F)cc(C(F)(F)F)c1` is 29.3

Entry `Cn1cc(C(=O)Nc2cc(C(F)(F)F)cc(C(F)(F)F)c2)c(O)n1` , tested on Inhibitor of nuclear factor kappa-B kinase subunit alpha (Homo sapiens), has a reported inhibition of 12.1

// returns inhibition for `O=C(Nc1cc(C(F)(F)F)cc(C(F)(F)F)c1)c1cc(Cl)ccc1O` with Inhibitor of nuclear factor kappa-B kinase subunit alpha (Homo sapiens); value = 3.45

Summary line: `COc1nsnc1C(=O)Nc1cc(C(F)(F)F)cc(C(F)(F)F)c1` , Inhibitor of nuclear factor kappa-B kinase subunit alpha (Homo sapiens), reported inhibition = 24.1
